Molecular target: BRD4 (Homo sapiens, UniProt O60885)
Construct: HiBiT-BRD4 HEK293 CRISPR CPM (Promega CS302312); host or cells: HEK293, CRISPR-edited (HiBiT at the BRD4 locus)
Assay: BRD4 degradation, HiBiT-BRD4 HEK293 CRISPR CPM cells, NanoGlo Lytic Endpoint assay (Assay Protocol 1)
Format: cell-based
Details: HEK293; Table 3; assay 1; 1 μM compound at 5 h of treatment
Reported Dmax by item:

| compound | system.name | Dmax |
| --- | --- | --- |
| COc1cc(-c2cn(C)c(=O)c(C)c2C)cc(OC)c1CN1CCN(Cc2cccc3c2CCN(C(=O)/C(C#N)=C/c2cccc(Br)n2)C3C)CC1 (mixture of isomers) | BRD4 (Homo sapiens, UniProt O60885) | < 25% |
| COc1cc(-c2cn(C)c(=O)c(C)c2C)cc(OC)c1CN1CC2CC(C1)N2Cc1cccc2c1CCN(C(=O)/C(C#N)=C/C(C)(C)C)C2C (mixture of isomers) | BRD4 (Homo sapiens, UniProt O60885) | 25 to 40% |
| COc1cc(-c2cc(C)c(=O)n(C)c2)cc(OC)c1CN1CCN(Cc2cccc3c2CCN(C(=O)/C(C#N)=C/c2cccc(Br)n2)C3C)CC1 (mixture of isomers) | BRD4 (Homo sapiens, UniProt O60885) | 40 to 70% |
| COc1cc(-c2cn(C)c(=O)c3cnccc23)cc(OC)c1CN1CCN(Cc2cccc3c2CCN(C(=O)/C(C#N)=C\c2ncc(C)s2)C3C)CC1 (mixture of isomers) | BRD4 (Homo sapiens, UniProt O60885) | < 25% |
| COc1cc(-c2cc(C)c(=O)n(C)c2)cc(OC)c1CN1CCN(Cc2cccc3c2CCN(C(=O)/C(C#N)=C/C2(F)CC2)C3C)CC1 (mixture of isomers) | BRD4 (Homo sapiens, UniProt O60885) | 40 to 70% |
| COc1cc(-c2cn(C)c(=O)c3cnccc23)cc(OC)c1CN(C)Cc1cccc2c1CCN(C(=O)/C(C#N)=C/c1cccc(Br)n1)C2C (mixture of isomers) | BRD4 (Homo sapiens, UniProt O60885) | < 25% |
| COc1cc(-c2cn(C)c(=O)c(C)c2C)cc(OC)c1CN1CCC(Oc2cccc3c2CCN(C(=O)/C(C#N)=C/c2cccc(Br)n2)C3C)CC1 (mixture of isomers) | BRD4 (Homo sapiens, UniProt O60885) | < 25% |
| COc1cc(-c2cn(C)c(=O)c(C)c2C)cc(OC)c1CN1CCCN(Cc2cccc3c2CCN(C(=O)/C(C#N)=C/C(C)(C)C)C3C)CC1 (mixture of isomers) | BRD4 (Homo sapiens, UniProt O60885) | < 25% |
| COc1cc(-c2cn(C)c(=O)c(C)c2C)cc(OC)c1CN1CCN(Cc2cccc3c2CCN(C(=O)/C(C#N)=C/c2nccs2)C3C)CC1 (mixture of isomers) | BRD4 (Homo sapiens, UniProt O60885) | < 25% |
| COc1cc(-c2cn(C)c(=O)c(C)c2C)cc(OC)c1CN1CCN(Cc2cccc3c2CCN(C(=O)/C(C#N)=C/c2ncc(C)s2)C3C)CC1 (mixture of isomers) | BRD4 (Homo sapiens, UniProt O60885) | < 25% |

---

Reported DC50 by item:
Molecular target: BRD9 (Homo sapiens)
Assay: Degradation of BRD9 (IF), immunofluorescence in MV4-11 cells, 24 hours (Assay Protocol 2)
Format: cell-based
Design: A suspension of MV4-11 cells (ATCC CRL-9591) was prepared; host or cells: MV4-11
Settings: Assay protocol 2; BRD9 degradation; read-out: DC50
observed.property: DC50

| molecule | result |
| --- | --- |
| COc1cc(-c2cc(C)c(=O)n(C)c2)cc(OC)c1CN1CCN(Cc2cccc(C3CCCN3C(=O)/C(C#N)=C/C(C)(C)C)c2)CC1 (mixture of isomers) | < 1.25 nM |
| COc1cc(-c2cn(C)c(=O)c(C)c2C)cc(OC)c1CN1CCN(Cc2cccc3c2CCN(C(=O)/C(C#N)=C/C(C)(C)C)C3C(C)C)C2(CC2)C1 (mixture of isomers) | < 1.25 nM |
| CC[C@@H]1c2cccc(CN3CCN(Cc4c(OC)cc(-c5cn(C)c(=O)c(C)c5C)cc4OC)CC34CC4)c2CCN1C(=O)/C(C#N)=C/C(C)(C)CF (single isomer, unassigned) | < 1.25 nM |

---

Reported Dmax by item:
Target: UniProt Q9H8M2
Sequence (Q9H8M2 1-597): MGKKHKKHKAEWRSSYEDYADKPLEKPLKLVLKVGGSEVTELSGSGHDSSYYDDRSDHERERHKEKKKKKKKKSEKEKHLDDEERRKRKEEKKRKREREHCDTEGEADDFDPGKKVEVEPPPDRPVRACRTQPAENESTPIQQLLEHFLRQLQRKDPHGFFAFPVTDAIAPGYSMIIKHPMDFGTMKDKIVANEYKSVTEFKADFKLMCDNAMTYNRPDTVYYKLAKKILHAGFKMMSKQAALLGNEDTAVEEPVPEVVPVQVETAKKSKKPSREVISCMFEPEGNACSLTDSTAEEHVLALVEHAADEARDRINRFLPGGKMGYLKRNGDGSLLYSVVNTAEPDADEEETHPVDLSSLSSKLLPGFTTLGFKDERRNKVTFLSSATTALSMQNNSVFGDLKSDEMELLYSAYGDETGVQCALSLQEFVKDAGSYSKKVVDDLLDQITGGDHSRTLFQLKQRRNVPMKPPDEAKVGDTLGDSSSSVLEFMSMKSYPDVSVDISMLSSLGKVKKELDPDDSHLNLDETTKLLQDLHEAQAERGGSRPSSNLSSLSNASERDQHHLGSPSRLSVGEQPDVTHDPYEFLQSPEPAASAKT
Test: Degradation of BRD9 (IF), immunofluorescence in MV4-11 cells, 24 hours (Assay Protocol 2)
Assay type: cell-based
Parameters: A suspension of MV4-11 cells (ATCC CRL-9591) was prepared; host or cells: MV4-11
Settings: MV4-11, Assay protocol 2; BRD9 degradation; read-out: Dmax
observed.property: Dmax

| compound | system.name | result |
| --- | --- | --- |
| COc1cc(-c2cn(C)c(=O)c3ccsc23)cc(OC)c1CN1CCN(Cc2cccc3c2CCN(C(=O)/C(C#N)=C/c2cccc(Br)n2)C3C)C2(CC2)C1 (mixture of isomers) | UniProt Q9H8M2 | > 75% |
| COc1cc(-c2cn(C)c(=O)c(C)c2C)cc(OC)c1C(=O)N1CCCN(Cc2cccc3c2CCN(C(=O)/C(C#N)=C/C(C)(C)C)C3C)CC1 (mixture of isomers) | UniProt Q9H8M2 | > 75% |
| COc1cc(-c2cn(C)c(=O)c(C)c2C)cc(OC)c1CN1CCN(Cc2cccc3c2CCN(C(=O)/C(C#N)=C/C(C)(C)C)C3C)CC1=O (mixture of isomers) | UniProt Q9H8M2 | > 75% |
| COc1cc(-c2cn(C)c(=O)c(C)c2C)cc(OC)c1CN1CCN(Cc2cccc3c2CCN(C(=O)/C(C#N)=C/c2cccc(F)c2F)C3C)CC1 (mixture of isomers) | UniProt Q9H8M2 | 40 to 70% |
| COc1cc(-c2cn(C)c(=O)c(C)c2C)cc(OC)c1CN1CCN(Cc2cccc3c2CCN(C(=O)/C(C#N)=C/C2(C)CCOC2)C3C)C2(CC2)C1 (mixture of isomers) | UniProt Q9H8M2 | > 75% |

---

Reported Dmax by item:
Biological target: BRD9 (Homo sapiens)
Sequence (Q9H8M2 1-597): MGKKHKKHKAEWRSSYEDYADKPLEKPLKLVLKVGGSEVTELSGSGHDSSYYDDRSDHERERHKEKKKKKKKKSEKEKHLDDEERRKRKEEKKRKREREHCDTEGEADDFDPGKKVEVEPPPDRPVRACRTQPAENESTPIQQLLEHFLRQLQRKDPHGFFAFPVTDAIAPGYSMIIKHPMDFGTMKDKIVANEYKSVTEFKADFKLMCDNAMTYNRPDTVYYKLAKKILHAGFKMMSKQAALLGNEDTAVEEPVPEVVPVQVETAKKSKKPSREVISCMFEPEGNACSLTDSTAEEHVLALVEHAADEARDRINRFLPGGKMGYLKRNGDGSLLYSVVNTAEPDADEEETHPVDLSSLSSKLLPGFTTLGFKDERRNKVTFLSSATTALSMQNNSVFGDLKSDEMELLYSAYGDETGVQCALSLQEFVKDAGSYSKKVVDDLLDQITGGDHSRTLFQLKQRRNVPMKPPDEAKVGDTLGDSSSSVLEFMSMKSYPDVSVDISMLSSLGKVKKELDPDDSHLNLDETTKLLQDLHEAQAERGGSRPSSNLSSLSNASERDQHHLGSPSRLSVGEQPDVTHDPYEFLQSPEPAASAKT
Experiment: BRD9 degradation, HiBiT-BRD9 KI HEK293 (LgBiT) cells, NanoGlo Lytic Endpoint assay (Assay Protocol 1)
Format: cell-based
Details: HEK293; Assay protocol 1; BRD9 degradation; read-out: Dmax

| compound | Dmax |
| --- | --- |
| COc1cc(-c2cn(C)c(=O)c(C)c2C)cc(OC)c1CN1CCC(Oc2cccc3c2CCN(C(=O)/C(C#N)=C/c2cccc(C(F)(F)F)n2)C3C)CC1 (stereo not shown) [B22] | > 75% |
| COCC1(/C=C(\C#N)C(=O)N2CCc3c(CN4CCN(Cc5c(OC)cc(-c6cn(C)c(=O)c(C)c6C)cc5OC)CC45CC5)cccc3C2C)CC1 (mixture of isomers) [Compound B124] | > 75% |
| COc1cc(-c2cn(C)c(=O)c(C)c2C)cc(OC)c1CN(C)C(=O)c1cccc2c1CCN(C(=O)/C(C#N)=C/c1cccc(Br)n1)C2C (mixture of isomers) [Compound B16] | > 75% |
| COc1cc(-c2cn(C)c(=O)c(C)c2C)cc(OC)c1CN1CCN(CC(=O)NCCOc2ccc3c(c2)CCN(C(=O)/C(C#N)=C/c2nccs2)C3C)CC1 (mixture of isomers) [Compound B31] | 40 to 70% |
